# credit: patent US20170050957A1

system: Key Broadleaf Weed and Crop Species; assay: Post-emergent Test II herbicidal activity (Table 15); format: in vivo; details: Abutilon theophrasti, post-emergence, 336 h, velvetleaf (Abutilon theophrasti), 70 g ai/ha, 14 d, read-out: Visual Growth Reduction (%) 14 Days After Application, ABUTH
Below, each entry is listed alongside its reported pest or weed control at 70 g/ha.

**Q:** Look up pest or weed control at 70 g/ha with Key Broadleaf Weed and Crop Species for this compound: COC(=O)c1nc(-c2cc3[nH]ccc3cc2F)c(F)c(N)c1Cl
**A:** 0 to 29%

**Q:** What measured pest or weed control at 70 g/ha is associated with COC(=O)c1nc(-c2ccc(Cl)c3occc23)cc(N)c1Cl on Key Broadleaf Weed and Crop Species?
**A:** 95 to 100%

----------
Known pest or weed control at 70 g/ha of a selection of compounds
tested on: Key Broadleaf Weed and Crop Species; test: Post-emergent Test II herbicidal activity (Table 15); type: in vivo; details: Brassica napus, post-emergence, 336 h, oilseed rape, canola (Brassica napus), 70 g ai/ha, 14 d, read-out: Visual Growth Reduction (%) 14 Days After Application, BRSNN

Study these solved cases before continuing.
>>> recorded_value("COC(=O)c1nc(-c2ccc(Cl)c3cc[nH]c23)cc(N)c1Cl")
"0 to 29%"
>>> recorded_value("COC(=O)c1nc(-c2cc3sccc3cc2F)c(F)c(N)c1Cl")
"0 to 29%"
>>> recorded_value("COc1c(C(=O)O)nc(-c2ccc3cc[nH]c3c2F)c(F)c1N")
"95 to 100%"

**Q:** // returns reported pest or weed control at 70 g/ha for input COC(=O)c1nc(-c2ccc3ncn(C)c3c2)c(F)c(N)c1Cl
**A:** 0 to 29%

**Q:** Entry under review: Nc1c(F)c(-c2ccc3occc3c2)nc(C(=O)O)c1Cl . Reported pest or weed control at 70 g/ha?
**A:** 30 to 44%

**Q:** Which pest or weed control at 70 g/ha reading was recorded for the compound Nc1c(F)c(-c2ccc3cc[nH]c3c2)nc(C(=O)O)c1Cl ?
**A:** 95 to 100%

**Q:** What does the data say about its pest or weed control at 70 g/ha? Entry: COC(=O)c1nc(-c2cccc3occc23)c(F)c(N)c1Cl
**A:** 75 to 84%

----------
Each entry below carries its recorded pest or weed control at 35 g/ha.
test system: Key Broadleaf Weed and Crop Species; assay: Post-emergent Test II herbicidal activity (Table 15); assay type: in vivo; conditions: Helianthus annuus, post-emergence, 336 h, sunflower (Helianthus annuus), 35 g ai/ha, 14 d, read-out: Visual Growth Reduction (%) 14 Days After Application, HELAN

Below, 3 molecules whose answers are already recorded.
>>> recorded_value("COC(=O)c1nc(-c2cc3sccc3cc2F)nc(N)c1OC [Compound 3.22]")
"75 to 84%"
>>> recorded_value("COC(=O)c1nc(-c2ccc3cn[nH]c3c2)cc(N)c1Cl [Compound 4.09]")
"0 to 29%"
>>> recorded_value("COC(=O)c1nc(-c2ccc(Cl)c3[nH]ccc23)nc(N)c1OC [Compound 1.45]")
"0 to 29%"

**Q:** May I ask what pest or weed control at 35 g/ha has been recorded for COC(=O)c1nc(-c2ccc3occc3c2)cc(N)c1Cl [Compound 2.03] ?
**A:** 0 to 29%

**Q:** Suppose we examine the molecule Nc1nc(-c2ccc(Cl)c3occc23)nc(C(=O)O)c1Cl [Compound 2.23] ; what pest or weed control at 35 g/ha value has been reported?
**A:** 85 to 94%

**Q:** Reported pest or weed control at 35 g/ha, molecule COC(=O)c1nc(-c2cccc3cn[nH]c23)c(F)c(N)c1Cl [Compound 4.13] : ____
**A:** 0 to 29%

**Q:** Recorded pest or weed control at 35 g/ha for Nc1c(Cl)c(C(=O)O)nc(-c2ccc3ccsc3c2)c1Cl [Compound 3.11] , please?
**A:** 85 to 94%

----------
tested on: Key Broadleaf Weed and Crop Species; assay: Post-emergent Test II herbicidal activity (Table 15); assay type: in vivo; conditions: Brassica napus, post-emergence, 336 h, oilseed rape, canola (Brassica napus), 140 g ai/ha, 14 d, read-out: Visual Growth Reduction (%) 14 Days After Application, BRSNN
Recorded pest or weed control at 140 g/ha by entry

The following compounds have reported results that may help.
>>> recorded_value("COc1c(N)nc(-c2ccc(Cl)c3occc23)nc1C(=O)O")
"60 to 74%"
>>> recorded_value("COC(=O)c1nc(-c2cccc3cn[nH]c23)c(F)c(N)c1Cl")
"0 to 29%"
>>> recorded_value("COC(=O)c1nc(-c2cccc3c2cnn3C)c(F)c(N)c1Cl")
"0 to 29%"
>>> recorded_value("Nc1c(F)c(-c2ccc3cc[nH]c3c2F)nc(C(=O)O)c1Cl")
"95 to 100%"

**Q:** Item COC(=O)c1nc(-c2ccc3cc[nH]c3c2F)c(F)c(N)c1Cl with Key Broadleaf Weed and Crop Species - pest or weed control at 140 g/ha?
**A:** 95 to 100%

**Q:** Lab note: need pest or weed control at 140 g/ha with Key Broadleaf Weed and Crop Species for entry COC(=O)c1nc(-c2cccc3ccsc23)c(F)c(N)c1Cl , please look it up.
**A:** 45 to 59%

**Q:** Find the measured pest or weed control at 140 g/ha: item COC(=O)c1nc(-c2ccc3ccsc3c2)nc(N)c1OC , target or system Key Broadleaf Weed and Crop Species.
**A:** 60 to 74%

----------
This section presents compounds with their documented pest or weed control at 140 g/ha values.
system: Key Broadleaf Weed and Crop Species; assay: Post-emergent Test II herbicidal activity (Table 15); type: in vivo; settings: Chenopodium album, post-emergence, 336 h, lambsquarters (Chenopodium album), 140 g ai/ha, 14 d, read-out: Visual Growth Reduction (%) 14 Days After Application, CHEAL

See these solved cases before continuing.
>>> recorded_value("COc1c(N)nc(-c2ccc3cc[nH]c3c2)nc1C(=O)O")
"60 to 74%"
>>> recorded_value("COC(=O)c1nc(-c2ccc3ccoc3c2F)nc(N)c1OC")
"95 to 100%"

**Q:** Query pest or weed control at 140 g/ha on Key Broadleaf Weed and Crop Species for COC(=O)c1nc(-c2ccc(Cl)c3occc23)c(F)c(N)c1Cl
**A:** 95 to 100%

----------
test system: Key Broadleaf Weed and Crop Species; assay: Post-emergent Test II herbicidal activity (Table 15); assay type: in vivo; details: Brassica napus, post-emergence, 336 h, oilseed rape, canola (Brassica napus), 140 g ai/ha, 14 d, read-out: Visual Growth Reduction (%) 14 Days After Application, BRSNN
endpoint_name: pest or weed control at 140 g/ha

The cases that follow already have their pest or weed control at 140 g/ha on record.
>>> recorded_value("COC(=O)c1nc(-c2ccc3c(ccn3C)c2)c(F)c(N)c1Cl [Compound 1.03]")
"0 to 29%"
>>> recorded_value("Nc1c(F)c(-c2cc3[nH]ccc3cc2F)nc(C(=O)O)c1Cl [Compound 1.14]")
"75 to 84%"

**Q:** So what's the measured pest or weed control at 140 g/ha for this one? C=Cc1c(C(=O)O)nc(-c2ccc3cc[nH]c3c2F)c(F)c1N [Compound 1.19]
**A:** 95 to 100%

**Q:** Which pest or weed control at 140 g/ha is reported for this molecule? COC(=O)c1nc(-c2ccc3ncn(C)c3c2)c(F)c(N)c1Cl [Compound 7.02]
**A:** 0 to 29%

----------
endpoint_name: melting point

>>> recorded_value("Nc1c(F)c(-c2ccc3ccoc3c2)nc(C(=O)O)c1Cl [Compound 2.08]")
"168 to 170 °C"
>>> recorded_value("COC(=O)c1nc(-c2ccc3ccsc3c2)c(F)c(N)c1Cl [Compound 3.12]")
"185 to 189 °C"
>>> recorded_value("Cn1ncc2ccc(-c3nc(C(=O)O)c(Cl)c(N)c3F)cc21 [Compound 4.08]")
"182 to 184 °C"
>>> recorded_value("Nc1c(F)c(-c2ccc3[nH]ncc3c2)nc(C(=O)O)c1Cl [Compound 4.02]")
"284 to 287 °C"
>>> recorded_value("COC(=O)c1nc(-c2ccc3cn[nH]c3c2)c(F)c(N)c1Cl [Compound 4.05]")
"185 to 187 °C"
>>> recorded_value("COC(=O)c1nc(-c2cc3ccoc3cc2F)cc(N)c1Cl [Compound 2.04]")
"98 °C"

Then there is this compound:
**Q:** What melting point value was documented for this compound, Nc1c(F)c(-c2cccc3ccsc23)nc(C(=O)O)c1Cl [Compound 3.25] ?
**A:** 183 to 185 °C

----------
test system: Key Grass and Sedge Weeds as well as Grass Crops; assay: Post-emergent Test II herbicidal activity (Table 16); assay type: in vivo; conditions: Triticum aestivum, post-emergence, 336 h, wheat, spring (Triticum aestivum), 140 g ai/ha, 14 d, read-out: Visual Growth Reduction (%) 14 Days After Application, TRZAS
Reported pest or weed control at 140 g/ha values for the following compounds.

**Q:** Recorded pest or weed control at 140 g/ha for COC(=O)c1nc(-c2ccc3cc[nH]c3c2)cc(N)c1Cl with Key Grass and Sedge Weeds as well as Grass Crops, please?
**A:** 0 to 29%

**Q:** Please state recorded pest or weed control at 140 g/ha (tested on Key Grass and Sedge Weeds as well as Grass Crops) of COC(=O)c1nc(-c2cc3ccoc3cc2F)cc(N)c1Cl
**A:** 45 to 59%

**Q:** Provide value of pest or weed control at 140 g/ha for this record tested with Key Grass and Sedge Weeds as well as Grass Crops: COC(=O)c1nc(-c2ccc3ccoc3c2F)c(F)c(N)c1Cl
**A:** 0 to 29%

**Q:** Notebook entry, Key Grass and Sedge Weeds as well as Grass Crops assay: pest or weed control at 140 g/ha of COC(=O)c1nc(-c2cc3ccoc3cc2F)nc(N)c1OC = ?
**A:** 0 to 29%

**Q:** // map COC(=O)c1nc(-c2c(F)cc3cc[nH]c3c2F)cc(N)c1Cl to recorded pest or weed control at 140 g/ha (system: Key Grass and Sedge Weeds as well as Grass Crops)
**A:** 0 to 29%

**Q:** Notebook: pull reported pest or weed control at 140 g/ha for Key Grass and Sedge Weeds as well as Grass Crops, entry COC(=O)c1nc(-c2cc3[nH]ccc3cc2F)cc(N)c1Cl
**A:** 0 to 29%

**Q:** Find pest or weed control at 140 g/ha (Key Grass and Sedge Weeds as well as Grass Crops) for the entry COc1c(N)nc(-c2ccc(Cl)c3occc23)nc1C(=O)O
**A:** 0 to 29%

**Q:** Observed pest or weed control at 140 g/ha on Key Grass and Sedge Weeds as well as Grass Crops for Cc1c(-c2ccc3cc[nH]c3c2)nc(C(=O)O)c(Cl)c1N , please.
**A:** 0 to 29%

**Q:** Look up pest or weed control at 140 g/ha with Key Grass and Sedge Weeds as well as Grass Crops for this compound: COc1c(N)nc(-c2ccc3cc[nH]c3c2)nc1C(=O)O
**A:** 30 to 44%
